target: Metabotropic glutamate receptor 8 (Rattus norvegicus) (UniProt P70579); assay: mGluR8 Gi/Go-coupled signaling modulation – cell-based, rat, thallium flux, HTS, primary screen (AID 488969); conditions: HEK293 rat mGluR8, GIRK (G protein-gated inwardly rectifying potassium channel) thallium flux, FluoZin2; at 10 µM; stronger effect = higher value; submaximal glutamate (EC20) added with thallium
Sequence (P70579 whole entry, looked up): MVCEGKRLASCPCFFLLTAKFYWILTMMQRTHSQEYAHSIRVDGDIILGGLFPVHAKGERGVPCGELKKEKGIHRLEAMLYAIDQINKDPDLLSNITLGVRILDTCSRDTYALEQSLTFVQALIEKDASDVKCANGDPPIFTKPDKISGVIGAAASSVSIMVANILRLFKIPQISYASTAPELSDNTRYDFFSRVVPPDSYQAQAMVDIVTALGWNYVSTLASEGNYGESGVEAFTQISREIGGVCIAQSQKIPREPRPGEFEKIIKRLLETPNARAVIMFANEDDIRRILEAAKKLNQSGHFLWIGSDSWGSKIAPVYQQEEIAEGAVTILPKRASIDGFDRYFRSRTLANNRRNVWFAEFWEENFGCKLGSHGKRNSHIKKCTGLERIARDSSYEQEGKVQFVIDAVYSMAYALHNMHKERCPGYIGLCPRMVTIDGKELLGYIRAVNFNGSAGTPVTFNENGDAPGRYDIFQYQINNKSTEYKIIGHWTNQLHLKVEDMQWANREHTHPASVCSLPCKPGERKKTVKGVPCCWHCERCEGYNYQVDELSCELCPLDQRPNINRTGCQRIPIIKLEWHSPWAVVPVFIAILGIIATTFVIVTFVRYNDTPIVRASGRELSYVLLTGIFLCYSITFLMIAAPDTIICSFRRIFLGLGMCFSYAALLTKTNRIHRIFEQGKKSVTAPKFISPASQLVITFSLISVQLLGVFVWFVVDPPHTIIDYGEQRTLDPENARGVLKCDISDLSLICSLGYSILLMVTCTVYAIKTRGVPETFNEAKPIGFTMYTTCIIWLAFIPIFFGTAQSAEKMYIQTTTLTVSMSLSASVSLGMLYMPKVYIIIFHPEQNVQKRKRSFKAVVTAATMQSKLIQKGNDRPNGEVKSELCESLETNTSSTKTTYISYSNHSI
In all, about 110,000 compounds were measured (“z-score”: median about -0.1, highest 2% from about 2 on). For the sample, the highest values were picked, then their nearest neighbours and some compounds at random.
Classify on z-score using low range = under -0.1, mid range = from -0.1 up to 0.2, high range = 0.2 and over

IN: Which category does the recorded z-score put Cc1cc(C)nc(NS(=O)(=O)c2ccc(NC(=O)c3ccc(S(=O)(=O)N4CC(C)OC(C)C4)cc3)cc2)n1 (stereo not drawn) in?
OUT: low range

IN: Which category does the recorded z-score put "Cn1c(=O)cc(OCCCC(=O)NCc2ccc3c(c2)OCO3)c2ccccc21" in?
OUT: high range

IN: Which category does the recorded z-score put "COc1ccc(N2CCN(S(=O)(=O)c3cccc(C(F)(F)F)c3)CC2)cc1" in?
OUT: mid range

IN: Which category does the recorded z-score put "Clc1ccccc1-c1ccc(/C=N/n2cnnc2)o1" in?
OUT: high range

IN: Which category does the recorded z-score put "Cc1ccc(NC(=O)CSc2nc3ccccc3c(=O)n2CCCN2CCCCC2)cc1C" in?
OUT: high range

IN: Which category does the recorded z-score put "Cc1ccc(Cn2nnc3c(=O)[nH]c(C4CCN(S(=O)(=O)c5cc(C)ccc5C)CC4)nc32)cc1" in?
OUT: high range

IN: Which category does the recorded z-score put "N#Cc1ccc(C(=O)Nc2nnc(-c3ccccn3)o2)cc1" in?
OUT: low range

IN: Which category does the recorded z-score put "Clc1cccc(-c2ccc(/C=N/n3cnnc3)o2)c1Cl" in?
OUT: high range

IN: Which category does the recorded z-score put "CCNC(=S)NNC(=O)c1cccn(Cc2ccc(Cl)cc2Cl)c1=O" in?
OUT: mid range

IN: Which category does the recorded z-score put CCC1Cc2c(nc3c4c(nc(N5CCOCC5)c(C#N)c24)NC(C)=N3)O1 (stereo not drawn) in?
OUT: low range

IN: Which category does the recorded z-score put "O=C(CS(=O)(=O)c1ccc2ccccc2c1)Nc1ccccc1Cl" in?
OUT: low range

IN: Which category does the recorded z-score put "CC(=NC1CC1)c1c(-c2ccccc2)[nH]n(-c2nc3ccccc3s2)c1=O" in?
OUT: low range

IN: Which category does the recorded z-score put "CCN1CCN(Cc2c(O)ccc3c(=O)c(-c4ccc(OC)c(OC)c4)c(C)oc23)CC1" in?
OUT: low range

IN: Which category does the recorded z-score put "COc1ccc(-c2nc(C)ncc2N=Nc2ccccc2)cc1" in?
OUT: low range

IN: Which category does the recorded z-score put CCCC1Cc2c(sc(NC(=S)NC(=O)c3ccccc3)c2C#N)CO1 (stereo not drawn) in?
OUT: high range

IN: Which category does the recorded z-score put "COc1ccc(CNC(=O)CCCOc2cc(=O)n(C)c3ccccc23)cc1" in?
OUT: mid range

IN: Which category does the recorded z-score put "O=C(Nc1cc(C(F)(F)F)ccc1N1CCCC1)c1cccnc1" in?
OUT: mid range

IN: Which category does the recorded z-score put "CC(C)CCNC(=O)CSc1nc2ccsc2c(=O)n1NC(=O)c1ccccc1" in?
OUT: mid range

IN: Which category does the recorded z-score put "Cc1ccc(Cn2c(SCC(=O)Nc3cc(C)on3)nc3ccccc3c2=O)cc1" in?
OUT: high range

IN: Which category does the recorded z-score put CCOC(=O)CSC1=C(C#N)C(=O)NC(c2ccc(OC)c(OC)c2)S1 (stereo not drawn) in?
OUT: high range

IN: Which category does the recorded z-score put "Cn1c(=O)oc2cc(S(=O)(=O)NCCN3CCN(c4ccccc4F)CC3)ccc21" in?
OUT: low range

IN: Which category does the recorded z-score put "Cn1cc(CCC(=O)NCc2ccc3c(c2)OCO3)c2ccccc21" in?
OUT: high range

IN: Which category does the recorded z-score put "COC(=O)c1ccc(N2CCN(S(=O)(=O)c3ccccc3)CC2)c([N+](=O)[O-])c1" in?
OUT: low range

IN: Which category does the recorded z-score put CC1CN(S(=O)(=O)c2ccc(C(=O)Nc3nnc(-c4ccc5c(c4)CCCC5)o3)cc2)CC(C)O1 (stereo not drawn) in?
OUT: high range

IN: Which category does the recorded z-score put "O=C(NCc1ccc(F)cc1)c1cc(S(=O)(=O)N2CCOCC2)ccc1F" in?
OUT: mid range

IN: Which category does the recorded z-score put "COc1ccc(NC(=O)CSc2nc3ccccc3c(=O)n2Cc2cccs2)c(OC)c1" in?
OUT: mid range

IN: Which category does the recorded z-score put "Cc1ccc(NC(=O)CCC(=O)NNC(=O)COc2ccccc2)c(C)c1" in?
OUT: low range

IN: Which category does the recorded z-score put "Cc1cc(C)c(NC(=O)c2ccc(S(=O)(=O)N(C)C)cc2)c(C)n1" in?
OUT: low range

IN: Which category does the recorded z-score put "O=C(Nc1nnc(-c2ccc3c(c2)OCCO3)o1)c1ccc(Cc2ccccc2)cc1" in?
OUT: mid range

IN: Which category does the recorded z-score put "O=C(Nc1ccccc1)c1ccc(S(=O)(=O)NCc2ccco2)cc1" in?
OUT: low range

IN: Which category does the recorded z-score put "Cc1ccc(C(=O)Nc2ccc(S(=O)(=O)NCc3ccco3)cc2)cc1" in?
OUT: mid range

IN: Which category does the recorded z-score put "CC(=O)Cc1nsc(NC(=O)c2cn(-c3ccccc3)nc2-c2ccc(Br)cc2)n1" in?
OUT: high range

Just for reference, PubChem BioAssay AID488969 is where these values come from.
